- TEST: yeast display, Sf9 membrane polyspecificity reagent, FACS + sequencing; frameworks hold sequencing errors
OUTCOME MEASURE: polyreactivity (PSR sort gate)

{"columns": ["BIOSEQUENCE", "MEASURED VALUE"],
 "data": [
  ["QVQLVESGGGLVQAGGSLRLSCAASGRTFYAYTRGWYRQAPGKERELVAAISSSGTRTYYADSVKGRFTISRDNAKNTVYLQMNSLKPEDTAVYDCAKGTQRFRGLDHGYDYWGQGTQVTVSS", "high polyreactivity"],
  ["QVQLVESGGGLVQAGGSLRLSCAASGSTIDGYAMGWYRQAPGKEREFVAAISFSSASTYYADSVKGRFTISRDNAKNTVYLQMNSLKPEDTAVYYCNADFFDSGGSIEYDSWGQGSQVTVSS", "low polyreactivity"],
  ["QVQLVESGGGLVQAGGSLRLSCAASGIIFYWNAMGWYRQAPGQEREFDASISGSGGSTYADSVKGRFTISRDNAMNTVYFQMKSLKPEDTAVYYCAVLYWRPGYDYLGQGTQVTVSS", "high polyreactivity"],
  ["QVQLVESGGGLVQAGGSLRLSCAACGYSFPAYAMGWYRQAPGKERELVAAINRRGGTTYYADSVKGRFTISRDNAKNTVYLQMNSLKPEDTAVYYCARYSGLKDMDYWGQGTQVSVSS", "high polyreactivity"],
  ["QVQLVESGGGLVQAGGSLRLSCAASGSTFHAYAMGWYRQAPGKERELVAGISWSGGDTTYADSVKGRFTISGDNAKNTVYLQMNSLKPEDTAVYYCAAAGRDPDNYLILNYWGQGTQVTVSS", "low polyreactivity"],
  ["QVQLKESGGGQVQAGGSLRLCCAASGKIIPDAGMGWYRQAPGKEREFVAGISRGANTYYADSVKGRFTISRDNAKNTLYLHMYSLKPEDTAVFYCAVNVPWTYQYGYWGQGTQVTVSS", "high polyreactivity"],
  ["QVQLVESGGGLVQAGGSLRLSCAATGFTFYTYAMGWYRQATGKETELVADISSGGSTNYADSVKGRFRISRDNAKNTVYLQMNSLIPEDTAVYYCSDDYYFLDWYDYWGQGTQVTVSS", "low polyreactivity"],
  ["QVQLVESGGGLVQAGGSLRLSCAASGRILGYYAMGWYRQAPGKERELVAAISSGDSTNYADSVKGRFTISRDNAKNTVYLQMNSLKPEDTAVYYCAAKGWIWNPYNYWGQGTQVTVSS", "low polyreactivity"]
]}

Looking for the measured polyreactivity (PSR sort gate) of `QVQLVESGGGLVQAGGSLRLSCAASGRTFVPYAMGWYRQAPGKERELVAAISSGGDTNYADSVKGRFTISRDNAKNTVYLQMNSLKPEDTAVYYCAVGGAGSDDYLGQGTQVTVSS` , can you help?
low polyreactivity

For the sequence shown here, `QVQLVESGGGIVQAGGSLRLSCAASGSIFGGNALGWDRQAPGKERELVAAITWSGTSTYYADSVKGRFTISRDNAKNTVYLQMNSLKPEDTAVYYCNADYKSTDFRYSGSRNYWGQGTQVTVSS` , give the reported polyreactivity (PSR sort gate).
low polyreactivity

What value of polyreactivity (PSR sort gate) has been recorded for this entry: `QVQLVESGGGLVQAGGSLRLSCAASGSTFWFYAMGWYRQAPGKERELDAAISNGDSTNYADSVKGRFTISRDNAKNTVYLQMNSLKPEDTAVYYCAADQVYGIGYEYWGQGTQVTVSS`
low polyreactivity

Quick check: polyreactivity (PSR sort gate) of `QVQLVESGGGLVQAGGSLRFSCAASGSTFTTNVMGWYRQAPGKERELVAAISHRGGSTYYADSVKGRFTMSRDNAKNTVYLQMNSLKPEDTAVYYCAAPGWERYGYWGQGTQVTVSS` ?
low polyreactivity

Given `QVQLVESGGGLVQAGGSLRLSCAASGRTLAHYTMGWYRQAPGKERELVAAITFSGGRTYYADSVKGRFTISRDNAKNTVYLQMNSQKPEDTAVYYCAAPGRWYYRGDDYWGQGTQVTVSS` , state its recorded polyreactivity (PSR sort gate).
low polyreactivity

---

- TEST: yeast display, Sf9 membrane polyspecificity reagent, FACS + sequencing; frameworks hold sequencing errors
OUTCOME MEASURE: polyreactivity (PSR sort gate)

Example sequences with recorded polyreactivity (PSR sort gate):
{"columns": ["BIOSEQUENCE", "polyreactivity (PSR sort gate)"],
 "data": [
  ["QVQLVESWGGLVQAGCSLRISCAASGSTLYSYAMGWNIQAPGKERELVAAINSGSNTYYADSVKGRFTISRDNAKNTVYLQMNSLKPEDTAVYYCAAKGIIYTGYDGARRAYGYWGQGTQVTVSS", "high polyreactivity"],
  ["QVQLVESGGGLVQAGGSLRLSCAASGSTFLNYAMGWYRQAPGKERELVAAISFSGGRTYYADSVKGRFTISRDIAKNTVYLQMNSLKPEDTAVYYCGAGGWRGHYYCGQGTQVTVSS", "high polyreactivity"],
  ["QVQLVESGGGLVQAGGSLRISCAASGYNSYSNAMGWYRQAPGKERELVASILSGGSTNYADSVKGRFTISRDNAKNTVYLQMNSLKPEDTAVSYCATRVRTRTGYQYYYWGQGTQVTVSS", "high polyreactivity"],
  ["QVQLVESGGGLFQAGGSLRLSCAASGIIFYVNDMGWYRQAPGKERELVADISGGTSTNYADSVKGRFTISRDNAKNTVYLQMNSLKPEDTAVYYCATAFIVQFPGSDYWGQGTQVTVSS", "low polyreactivity"],
  ["QVQLEESGGGLVQAGGSLRLSCAASGIIFPRNAMGWYRQAPGKERELVAAITNTGSTKYADSVKGRFTISRDNAKNSVYLHMNSLKPEDTAVYYCAKELGSVPSPSLYDYWGQGTQVTVSS", "low polyreactivity"]
]}

Fill in the blank: the reported polyreactivity (PSR sort gate) of `QVQLVESGGGLVQAGGSLRLSCAASGRTFTLYTMGWYRQAPGKERELVAAIRYSGGSTYYADSVKGRFTISRDNAKNTVYLHMNSLKPEDTAVYYCAARSYYYGFLYRYDYWGQGTQVTVSS` is ____.
low polyreactivity

May I ask what polyreactivity (PSR sort gate) has been recorded for `QVQLVESGGGLVQAGGSLRLSCAASGRTFGGYAMGWYRQAPGKERELVAAISKSGGSTYYAVSVKGRFTISRDTAKNTVYLQMNSLKPEDTAVYYCAAQGSSYSTRVWRRYYYWGQGTQVTVSS` ?
high polyreactivity

Endpoint output: polyreactivity (PSR sort gate) of `QVQLVESGGGLVQAGGSLRLSCAASGRIFYHYAMGWYRQAPGKERELVATINSSGTSTYYADSVKGRFTISRDNAKNTVYLQMNSLKPEDTALYYCAASTYNKMYYWGQGTHVTVSS` . Value?
high polyreactivity

Which polyreactivity (PSR sort gate) is reported for this sequence? `QVQLVESGGGLVQAGGSLRLSCAASGSTFDRNVMGWYRQAPGKERELVAAISRVSSTNYADSVKGRFTISRDNAKNTVYLQMNSLKPEDTAVYYCNARRESYYQRYRVDYWGQGTQVTVSS`
low polyreactivity

Fill in the blank: the reported polyreactivity (PSR sort gate) of `QVQLVESGGGLVQAGGSLRLSCAASGMIFTLYAMGWNRQAPGKERELVAGIDASGGSTSYADSVKGRFTISRDNAKNTVYLQMNSLKPEDTAVYYCAARILPYGYDYWGQGTQVTVSS` is ____.
low polyreactivity

Fill in the blank: the reported polyreactivity (PSR sort gate) of `QVQLVESGGGLVQAGGSLRLSCAASGFIFAKYAMGWYRQAPGKERELVAAITSGGSTNYADSVKGRFTISRDNAKNTVYLQMNSLKPEDTAVYYCNRGFDWWYRYRHYDYWGQGTQVTVSS` is ____.
low polyreactivity

---

- TEST: yeast display, Sf9 membrane polyspecificity reagent, FACS + sequencing; frameworks hold sequencing errors
OUTCOME MEASURE: polyreactivity (PSR sort gate)

The cases that follow already have their polyreactivity (PSR sort gate) on record.
{"columns": ["BIOSEQUENCE", "MEASURED VALUE"],
 "data": [
  ["QVQLVESGGGLVQAGGSLRLSCAASGRTFVRNAMGWYRQAPGKVRELVAAISSIGDSTYYADSVKGRFTISRDNAKNTVYLQMNSLKPEDTAVYYSNARGYVYYRMGYWGQGTQETVSS", "low polyreactivity"],
  ["QVQLVESGGGLVQAGGSLRLSCAASGSTFSIYAMGGDRQAPGKERELVAAITRRSGSTYYADSVKGRFTISRDNAKNTVSLQMNSLKPEDTAVYYCAADTWRTDYTSSYYKNRDSWGQGTQVTVSS", "high polyreactivity"],
  ["QVQLVESGGGVVQAGGSLRLSGAASGTLDGNAMGWYRPAPGKERELVAAISRCGGRTYYADSVKGRFTISRDNAKNTVYLQMNSQKPEDTAVYYCNTVSKPGYAYNYWGQGTQVTVSS", "high polyreactivity"],
  ["QVQLLESGVGLVQAGGSLRLSSAASGRNFQQNAMAWYRQAPGKERELVAAINSRGGRTYYADSVKGRFTISRDNAKNTVYLQMNSLKPEDTAVYYCGAYFRNYRSYYYWGQGTQVTVSS", "high polyreactivity"],
  ["QVQLVESGGGLVQAGGSLRLSFAASGFTFCIYAMGWYRQAPGKERELVAAINVSEGSTYYADSVKGRFTISRDNAKNTVYLQMNSLKPEDTAVYYCDAYLYDTIYTSYREYDYWGQGTQVTVSS", "low polyreactivity"]
]}

Query (sequence): `QVQLVESGGGLVQAGGSLRLSCAASGFIIAYYAMGWYRQAPGKERELVAAISRRGGSTYYADSVKGRFTISRDNAKNTVYLQMNSLKPEDTAVYYCAKAHYLSDYNYWGQGTQVTVSS` ; field requested: polyreactivity (PSR sort gate)
high polyreactivity

Record request: polyreactivity (PSR sort gate) value, item `QVQLVESGVGLVQAGGSLRLSCAASGSTFGGNAMGWYRQAPWKERELVADITFSGGSTSYAHSVKGSFTISRDNAKNTVYLLMNRLKPEDTAVYYCNRDYPEIIVAGLDFWGQGTQLTVSS`
low polyreactivity

Quick check: polyreactivity (PSR sort gate) of `QVQLVESGGGLVQAGGSLRLSCAASGIIFAYYTMGWYRQAPGKLRELVAAISWNGGRTYYADSVKGRFTISRDNAKNTVYLQINSLKPEDTAVYYCAARDASSFLRSYYWGQGTQVTVSS` ?
high polyreactivity

Returns the measured polyreactivity (PSR sort gate) for the input sequence. Input: `QVQLVESGGGLVQAGGSLRLSSAASGGIFWYYTMGWYRQAPGKERELVAAISWSGGRTYYADSVKGRFTISRDNAKNTVYLQMNSLKPEDTAVYYCAATFRGVLGWYHYEYWGQGTQVTVSS`
high polyreactivity
